Answer each item with its documented normalized growth.
assay: chemical genetic growth profiling, strain panel (AID 1159580);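 further: tested at 20 µM; growth read once vehicle control cultures reached saturation at 30 °C; 1 = growth at the plate median or of vehicle wells; lower values mean less growth of the strain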; settings: S. cerevisiae deletion strains, growth OD, locus YNL271C, strain bni1, hits give low values
Hit rate of the full screen: of about 5,500 compounds, about 2,000 (36%) were called active. Roughly 18% stayed inconclusive and do not appear here. This is one part of the list.
Please respond with just the number, no unit label.

### Prompt Please report the recorded normalized growth for O=C1CCC(N2C(=O)c3ccccc3C2=O)C(=O)N1 (centres undefined) .
### Response 0.986

### Prompt Now the compound `CN(C)CCN(Cc1ccccc1)c1ccccn1`
### Response 0.953

### Prompt Now the compound `CN1CC(CO)=C[C@@H]2c3cccc4[nH]cc(c34)C[C@H]21`
### Response 1.01

### Prompt Now the compound c1ccc2c(c1)CCCC2C1=NCCN1 (centres undefined)
### Response 0.998

### Prompt Now the compound `CN(C)CCN(Cc1cccs1)c1ccccn1`
### Response 1.01

### Prompt Now the compound CCC(C)C(=O)O[C@@H]1C[C@@]2(C)[C@H](c3ccoc3)OC(=O)CC23OC2(C)OC34[C@H](OC(=O)C(C)C)[C@@]3(O)[C@@H](OC(=O)C5(C)OC5C)[C@@]5(C)C[C@]3(O)[C@@](C)([C@H]5CC(=O)OC)C14O2 (some centres undefined)
### Response 1.01

### Prompt Now the compound `C#CCN(C)Cc1ccccc1`
### Response 1.02

### Prompt Now the compound CCC(C)C(=O)O[C@@H]1C[C@@]2(C)[C@H](c3ccoc3)OC(=O)CC23OC2(C)O[C@]14[C@]1(C)[C@@H](CC(=O)OC)C5(C)CC1(O)[C@](O)(C5OC(=O)C1(C)OC1C)[C@@H](OC(C)=O)[C@]34O2 (some centres undefined)
### Response 1.02

### Prompt Now the compound CCC(C)C(=O)OC1CC2(C)C(c3ccoc3)OC(=O)CC23OC2(C)OC34C(OC(=O)C(C)C)C3(O)C(OC(=O)C5(C)OC5C)C5(C)CC3(O)C(C)(C5C(=O)OC)C14O2 (centres undefined)
### Response 1.03

====

Answer each item with its documented normalized growth.
experiment: chemical genetic growth profiling, strain panel (AID 1159580); details: S. cerevisiae deletion strains, growth OD, locus YJL168C, strain set2, hits give low values
Out of some 5,500 compounds screened, about 2,000 (36%) were called active. Not shown: some 18% with an inconclusive outcome. This is one part of the list.
Please respond with just the number, no unit label.

### Prompt Please report the recorded normalized growth for O=C(OCC(O)CO)c1ccccc1Nc1ccnc2cc(Cl)ccc12 (stereo not drawn) .
### Response 0.995

### Prompt Now the compound `COc1ccc(CN(CCN(C)C)c2ccccn2)cc1`
### Response 0.993

### Prompt Now the compound `CCN(CC)Cc1ccc(Nc2ccnc3cc(Cl)ccc23)cc1O`
### Response 1

### Prompt Now the compound `CC(=O)Oc1cc(OC(C)=O)c2c(c1)O[C@H](c1ccc(OC(C)=O)c(OC(C)=O)c1)[C@H](OC(C)=O)C2`
### Response 1.03

### Prompt Now the compound C=C1C2CC[C@@]3(C)[C@H](c4ccoc4)OC(=O)C[C@]13O[C@H]1CC(=O)C(C)(C)[C@H](C(OC(C)=O)C(=O)OC)[C@@]21C (stereo partly drawn)
### Response 1

### Prompt Now the compound `CN(C)CCN(Cc1ccccc1)c1ccccn1`
### Response 0.982

### Prompt Now the compound `O=C(Oc1cc(OC(=O)c2ccccc2)c2c(c1)O[C@H](c1ccc(OC(=O)c3ccccc3)c(OC(=O)c3ccccc3)c1)[C@@H](OC(=O)c1ccccc1)C2)c1ccccc1`
### Response 1.06

### Prompt Now the compound `O=C(O[C@@H]1Cc2c(O)cc(O)cc2O[C@@H]1c1cc(O)c(O)c(O)c1)c1cc(O)c(O)c(O)c1`
### Response 0.998

### Prompt Now the compound C[C@]12CCC(=O)C=C1C=CC1C2CC[C@@]2(C)C1CC[C@@]21CCC(=O)O1 (stereo partly drawn)
### Response 0.969

### Prompt Now the compound CC1CCc2cc(F)cc3c(=O)c(C(=O)O)cn1c23 (stereo not drawn)
### Response 0.967

### Prompt Now the compound `O=C(Oc1cc(O)cc2c1C[C@@H](OC(=O)c1cc(O)c(O)c(O)c1)[C@@H](c1cc(O)c(O)c(O)c1)O2)c1cc(O)c(O)c(O)c1`
### Response 0.937

### Prompt Now the compound `Nc1nc(=S)c2[nH]cnc2[nH]1`
### Response 0.995

### Prompt Now the compound `COC(=O)/C=C/C(C)=C/C=C/C(C)=C/C=C/C=C(C)/C=C/C=C(C)/C=C/C(=O)O`
### Response 0.994

### Prompt Now the compound `O=C(O[C@@H]1Cc2c(O)cc(O)cc2O[C@@H]1c1ccc(O)c(O)c1)c1cc(O)c(O)c(O)c1`
### Response 1.03

### Prompt Now the compound `C[C@H]1COc2c(N3CCN(C)CC3)c(F)cc3c(=O)c(C(=O)O)cn1c23`
### Response 1.01

### Prompt Now the compound CC(=O)S[C@@H]1CC2=CC(=O)CC[C@]2(C)[C@H]2CC[C@@]3(C)[C@@H](CC[C@@]34CCC(=O)O4)C12 (stereo partly drawn)
### Response 1.02

### Prompt Now the compound NCCC(O)C(=O)NC1CC(N)C(OC2OC(CN)C(O)C(O)C2N)C(OC2OC(CO)C(O)C2O)C1O (stereo not drawn)
### Response 0.991

### Prompt Now the compound `CCn1cc(C(=O)O)c(=O)c2cc(F)c(N3CCNCC3)nc21`
### Response 1.01

====

assay: chemical genetic growth profiling, strain panel (AID 1159580);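 further: tested at 20 µM; growth read once vehicle control cultures reached saturation at 30 °C; 1 = growth at the plate median or of vehicle wells; lower values mean less growth of the strain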; conditions: S. cerevisiae deletion strains, growth OD, locus YML070W, strain DAK1, hits give low values
The campaign covered roughly 5,500 compounds. About 2,000 (36%) were called active. Roughly 18% stayed inconclusive and do not appear here. The list shows a part of the results.
Rule: normalized growth below 0.9 gives 1, anything at or above gives -1.

### Prompt Confirm or reject: normalized growth of `Fc1cc(I)ccc1Nc1ccnc2cc(Cl)ccc12` lies strictly below 0.9
### Response -1

### Prompt Now the molecule `C/C(Cc1nnn(-c2cc(C)on2)n1)=N/OC(=O)Nc1ccc(Cl)cc1`
### Response -1

### Prompt Now the molecule `Cc1cc(C(=O)NNS(=O)(=O)c2ccc(F)c(Cl)c2)nn1-c1c(Cl)cc(Cl)cc1Cl`
### Response -1

### Prompt Now the molecule `O=C(c1csc(-c2ccc(Cl)cc2)c1)N1CCCCC1`
### Response 1

### Prompt Now the molecule CCOC(=O)C1C(c2c(F)cccc2Cl)C(C(=O)OCC)C(O)(C(F)(F)F)NC1(O)C(F)(F)F (stereo not given)
### Response -1

====

experiment: chemical genetic growth profiling, strain panel (AID 1159580);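 further: tested at 20 µM; growth read once vehicle control cultures reached saturation at 30 °C; 1 = growth at the plate median or of vehicle wells; lower values mean less growth of the strain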; settings: S. cerevisiae deletion strains, growth OD, locus YOR136W, strain idh2, hits give low values
About 2,000 (36%) of roughly 5,500 compounds were called active. Another 18% or so got no clear call; they are omitted. The list shows a part of the results.
Answer each item with its documented normalized growth.
Please respond with just the number, no unit label.

### Prompt Please report the recorded normalized growth for `Oc1cc(O)c2c(c1)O[C@H](c1ccc(O)c(O)c1)[C@@H](O)C2` .
### Response 1

### Prompt Now the compound `Oc1ccc2c(c1)O[C@H](c1ccc(O)c(O)c1)[C@@H](O)C2`
### Response 0.996

### Prompt Now the compound `O=C1c2ccc(O)cc2O[C@H](c2cc(O)c(O)c(O)c2)[C@H]1O`
### Response 1.05

### Prompt Now the compound `COc1ccc([C@H]2Oc3c(I)c(OC)cc(OC)c3C[C@@H]2O)cc1OC`
### Response 1.02

### Prompt Now the compound `Cc1[nH]c2ccccc2c1CN(C)C`
### Response 0.975

====

experiment: chemical genetic growth profiling, strain panel (AID 1159580);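 further: tested at 20 µM; growth read once vehicle control cultures reached saturation at 30 °C; 1 = growth at the plate median or of vehicle wells; lower values mean less growth of the strain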; conditions: S. cerevisiae deletion strains, growth OD, locus YDL185W, strain tfp1
The campaign covered roughly 5,500 compounds. About 2,000 (36%) were called active. About 18% were inconclusive and are not listed. Rule as the data show it: active = normalized growth mostly below about 0.91 (no sharp cut-off); inconclusive = no clear call, values can overlap the other calls; inactive = mostly above about 0.92. The list shows a part of the results.
Tick one outcome: Y = active, N = inactive

### Prompt Lab log entry: `CC1(C)S[C@@H]2[C@H](NC(=O)[C@H](N)c3ccccc3)C(=O)N2[C@H]1C(=O)O` — outcome as called in the assay?
### Response N

### Prompt Now the compound `CCCCCCCCCCC[C@@H](C[C@H]1OC(=O)[C@H]1CCCCCC)OC(=O)[C@@H](CC(C)C)NC=O`
### Response N

### Prompt Now the compound `O=c1cccc2ccc(O)c(O)c2c1O`
### Response N

### Prompt Now the compound CC(=O)O[C@H]1C[C@@H](OC(C)=O)C(C)(C)C2CC(=O)[C@]3(C)C(CC[C@@]4(C)[C@H](C(=O)O)OC(=O)C5OC543)[C@]21C (stereo partly drawn)
### Response N

### Prompt Now the compound CC(=O)S[C@@H]1CC2=CC(=O)CC[C@]2(C)[C@H]2CC[C@@]3(C)[C@@H](CC[C@@]34CCC(=O)O4)C12 (stereo partly drawn)
### Response N

### Prompt Now the compound C=C1CCC2[C@](C)(CO)[C@H](O)CC[C@@]2(C)[C@@H]1C/C=C1/C(=O)OC[C@H]1O (stereo partly drawn)
### Response N

### Prompt Now the compound CCC1(O)CC(OC2CC(N(C)C)C(OC3CC(O)C(OC4CCC(=O)C(C)O4)C(C)O3)C(C)O2)c2c(cc3c(c2O)C(=O)c2c(O)cccc2C3=O)C1C(=O)OC (stereo not drawn)
### Response N

### Prompt Now the compound `COc1ccc2c(c1)OC/C(=C/c1ccc(OC)c(OC)c1)C2=O`
### Response N

### Prompt Now the compound `NCCc1cnc[nH]1`
### Response N

### Prompt Now the compound CNCCC(Oc1ccc(C(F)(F)F)cc1)c1ccccc1 (stereo not drawn)
### Response N

### Prompt Now the compound COc1ccc(OC)c(C(O)CNC(=O)CN)c1 (stereo not drawn)
### Response N

### Prompt Now the compound `COc1cc(CNC(=O)CCCC/C=C/C(C)C)ccc1O`
### Response N

### Prompt Now the compound O=C1CCC(N2C(=O)c3ccccc3C2=O)C(=O)N1 (stereo not drawn)
### Response N

### Prompt Now the compound `CC[C@@]1(O)C[C@H](O)c2c(cc3c(c2O)C(=O)c2c(O)ccc(O)c2C3=O)[C@H]1C(=O)OC`
### Response Y

### Prompt Now the compound C/C=C(\C)C(=O)O[C@H]1C[C@@H](OC(C)=O)[C@@]2(C(=O)OC)CO[C@@H]3C2[C@]12CO[C@](O)(C(=O)OC)[C@H]2[C@](C)(C12O[C@@]1(C)[C@H]1C[C@@H]2OC2OC=C[C@@]21O)[C@@H]3O (stereo partly drawn)
### Response N

### Prompt Now the compound `COC(=O)/C=C/C(C)=C/C=C/C(C)=C/C=C/C=C(C)/C=C/C=C(C)/C=C/C(=O)O`
### Response N

### Prompt Now the compound `CN1CC(=O)N=C1N`
### Response N

### Prompt Now the compound COc1ccc(C(CN(C)C)C2(O)CCCCC2)cc1 (stereo not drawn)
### Response N

### Prompt Now the compound `Clc1ccc(C(c2ccc(Cl)cc2)C(Cl)(Cl)Cl)cc1`
### Response N

### Prompt Now the compound `C[C@@H]1O[C@@H](O[C@H]2[C@H](Oc3cc(O)c4c(=O)cc(-c5ccc(O)cc5)oc4c3)O[C@H](CO)[C@@H](O)[C@@H]2O)[C@H](O)[C@H](O)[C@H]1O`
### Response N

### Prompt Now the compound `CCN(CC)C(=O)N1CCN(C)CC1`
### Response N

### Prompt Now the compound `CCCCC[C@H]1C(=O)O[C@H](C)[C@H](NC(=O)c2cccc(NC=O)c2O)C(=O)O[C@@H](C)[C@@H]1OC(=O)CC(C)C`
### Response N

### Prompt Now the compound `CCCCCCCCC(=O)NCc1ccc(O)c(OC)c1`
### Response N

### Prompt Now the compound NCCC(O)C(=O)NC1CC(N)C(OC2OC(CN)C(O)C(O)C2N)C(OC2OC(CO)C(O)C2O)C1O (stereo not drawn)
### Response N

### Prompt Now the compound `NS(=O)(=O)c1cc2c(cc1Cl)NC=NS2(=O)=O`
### Response N

### Prompt Now the compound `Cc1ccc(S(=O)(=O)NC(=O)NN2CCCCCC2)cc1`
### Response N

### Prompt Now the compound CC1CCc2cc(F)cc3c(=O)c(C(=O)O)cn1c23 (stereo not drawn)
### Response N

### Prompt Now the compound C[C@]12CCC(=O)C=C1C=CC1C2CC[C@@]2(C)C1CC[C@@]2(O)CCC(=O)O (stereo partly drawn)
### Response N

### Prompt Now the compound `CC[C@@]1(O)C[C@H](O[C@H]2C[C@H](N(C)C)[C@H](O)[C@H](C)O2)c2c(cc3c(c2O)C(=O)c2c(O)ccc(O)c2C3=O)[C@H]1C(=O)OC`
### Response N

### Prompt Now the compound `CN(C)CCN(Cc1cccs1)c1ccccn1`
### Response N

### Prompt Now the compound CCn1cc(C(=O)O)c(=O)c2cc(F)c(N3CCNC(C)C3)c(F)c21 (stereo not drawn)
### Response N

### Prompt Now the compound `CC[C@@]1(O)C[C@H](O[C@H]2C[C@H](N(C)C)[C@H](O)[C@H](C)O2)c2c(cc3c(c2O)C(=O)c2c(O)cccc2C3=O)[C@H]1C(=O)OC`
### Response Y

### Prompt Now the compound `O=C(O)c1cc2cc(F)ccc2[nH]1`
### Response N

### Prompt Now the compound `Cc1[nH]c2ccccc2c1CN(C)C`
### Response N

### Prompt Now the compound `COc1ccc2c(c1)OC/C(=C\c1ccc(OC)c(O)c1)C2=O`
### Response N

### Prompt Now the compound `CCCCNC(=O)NS(=O)(=O)c1ccc(C)cc1`
### Response N

### Prompt Now the compound COc1cc([C@@H]2c3cc4c(cc3C(OC3O[C@@H]5COC(C)O[C@H]5[C@H](O)[C@H]3O)C3COC(=O)[C@@H]32)OCO4)cc(OC)c1O (stereo partly drawn)
### Response N

### Prompt Now the compound `O=C(O)/C=C/c1ccc(O)c(O)c1`
### Response N
